- compound: "O=C(Nc1cccc(-c2cccc(C(F)(F)F)c2)c1)Nc1ccccc1CCO"
  value.relation.sign: "="
  melting point (°C): 180
- compound: "O=C(Nc1cccc(-c2cccc(Cl)c2)c1)Nc1ccccc1CCO"
  value.relation.sign: "="
  melting point (°C): 175
- compound: "COc1cc(CNC(=O)Nc2cccc3ccccc23)ccc1O"
  value.relation.sign: "="
  melting point (°C): 149
- compound: "CCOC(=O)c1ccc(-c2cccc(NC(=O)Nc3ccccc3CCO)c2)cc1"
  value.relation.sign: "="
  melting point (°C): 196
- compound: "COc1cc(CNC(=O)Nc2ccc(Br)cc2)ccc1O"
  value.relation.sign: "="
  melting point (°C): 203
- compound: "COc1cc(CNC(=O)Nc2cccc(C)c2)ccc1O"
  value.relation.sign: "="
  melting point (°C): 181
- compound: "O=C(Nc1cccc(-c2ccc(C(F)(F)F)cc2)c1)Nc1ccccc1CCO"
  value.relation.sign: "="
  melting point (°C): 198
- compound: "O=C(Nc1ccc2c(c1)Cc1ccccc1-2)Nc1ccccc1CCO"
  value.relation.sign: ">"
  melting point (°C): 250
- compound: "O=C(Nc1ccc(Cl)c(C(F)(F)F)c1)Nc1cccc(-c2ccccc2)c1CCO"
  value.relation.sign: "="
  melting point (°C): 173
- compound: "COc1cc(CNC(=O)Nc2ccc(F)c([N+](=O)[O-])c2)ccc1O"
  value.relation.sign: "="
  melting point (°C): 184
- compound: "Cc1cccc(NC(=O)Nc2ccccc2CCO)c1"
  value.relation.sign: "="
  melting point (°C): 186
- compound: "O=C(Nc1cccc(-c2ccccc2C(F)(F)F)c1)Nc1ccccc1CCO"
  value.relation.sign: "="
  melting point (°C): 153
- compound: "O=C(Nc1ccc(Br)cc1)Nc1ccccc1CCO"
  value.relation.sign: "="
  melting point (°C): 208
- compound: "CC(NC(=O)Nc1ccccc1CCO)c1cccc2ccccc12 (stereo not drawn)"
  value.relation.sign: "="
  melting point (°C): 176
- compound: "Cc1ccc2cc(NC(=O)Nc3ccccc3CCO)ccc2n1"
  value.relation.sign: "="
  melting point (°C): 207
- compound: "COc1ccc2c(c1)C(NC(=O)Nc1ccc(F)cc1)CCC2 (stereo not drawn)"
  value.relation.sign: "="
  melting point (°C): 177.5
- compound: "O=C(Nc1ccc(F)cc1)Nc1ccccc1CCO"
  value.relation.sign: "="
  melting point (°C): 183
- compound: "COc1cc(CNC(=O)Nc2ccc(Cl)cc2)ccc1O"
  value.relation.sign: "="
  melting point (°C): 210
- compound: "CC(=O)c1ccc(-c2cccc(NC(=O)Nc3ccccc3CCO)c2)cc1"
  value.relation.sign: "="
  melting point (°C): 205
- compound: "O=C(Nc1ccc(Cl)c(C(F)(F)F)c1)Nc1cccc(Br)c1CCO"
  value.relation.sign: "="
  melting point (°C): 209

---

Target: human VR1 (Homo sapiens, UniProt Q8NER1)
Construct: expressed in transfected cells
Sequence (Q8NER1 whole entry): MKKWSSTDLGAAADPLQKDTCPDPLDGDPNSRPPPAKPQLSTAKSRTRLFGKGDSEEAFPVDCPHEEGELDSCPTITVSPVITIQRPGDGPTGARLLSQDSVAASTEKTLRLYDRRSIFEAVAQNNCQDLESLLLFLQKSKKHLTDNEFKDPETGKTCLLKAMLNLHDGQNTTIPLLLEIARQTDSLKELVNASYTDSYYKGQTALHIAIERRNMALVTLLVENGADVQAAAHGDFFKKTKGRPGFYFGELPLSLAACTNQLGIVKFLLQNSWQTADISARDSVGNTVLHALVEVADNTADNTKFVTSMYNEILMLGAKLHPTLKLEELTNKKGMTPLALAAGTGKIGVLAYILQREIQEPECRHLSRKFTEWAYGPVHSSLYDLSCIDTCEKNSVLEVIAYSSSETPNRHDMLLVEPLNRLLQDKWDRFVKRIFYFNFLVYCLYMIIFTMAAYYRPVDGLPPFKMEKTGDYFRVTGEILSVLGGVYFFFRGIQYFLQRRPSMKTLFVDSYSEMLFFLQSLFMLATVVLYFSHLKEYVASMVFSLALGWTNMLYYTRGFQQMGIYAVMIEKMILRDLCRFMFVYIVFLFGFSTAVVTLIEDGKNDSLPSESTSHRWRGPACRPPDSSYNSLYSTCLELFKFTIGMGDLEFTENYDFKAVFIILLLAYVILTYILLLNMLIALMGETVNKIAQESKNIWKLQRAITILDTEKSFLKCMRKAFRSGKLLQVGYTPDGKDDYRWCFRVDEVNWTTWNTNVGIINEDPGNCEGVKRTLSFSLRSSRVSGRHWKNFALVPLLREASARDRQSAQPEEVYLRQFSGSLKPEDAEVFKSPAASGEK
Experiment: Capsaicin-induced Ca2+ influx in the human VR1-transfected CHO cell line (Assay 1)
Format: cell-based
Conditions: human VR1-CHOluc9aeq cells, 10 nM capsaicin; compound purity about 40 to 90%; read-out: hVR1 class
pIC50: −log10 of the molar value.
Below, each entry is listed alongside its reported pIC50.
parameter.measured: pIC50

- molecule: "O=C(NCc1cccc(F)c1)Nc1ccccc1 [Example 46]"
  parameter.measured: "pIC50"
  measured.value: "6.00 to 6.30"
- molecule: "O=C(Nc1cccc(-c2cccc(F)c2)c1)Nc1ccccc1CCO [Example 211]"
  parameter.measured: "pIC50"
  measured.value: "> 7.00"
- molecule: "COc1cc(CNC(=O)Nc2ccc([N+](=O)[O-])cc2Cl)ccc1O [Example 67]"
  parameter.measured: "pIC50"
  measured.value: "6.00 to 6.30"
- molecule: "COc1cc(CNC(=O)Nc2ccccc2Cl)ccc1O [Example 79]"
  parameter.measured: "pIC50"
  measured.value: "6.30 to 7.00"
- molecule: "COc1ccc(COc2cc(CNC(=O)Nc3ccc(F)cc3)ccc2OC)cc1 [Example 7]"
  parameter.measured: "pIC50"
  measured.value: "6.00 to 6.30"
- molecule: "COc1ccc(CNC(=O)Nc2ccccc2CCO)cc1 [Example 127]"
  parameter.measured: "pIC50"
  measured.value: "6.00 to 6.30"
- molecule: "O=C(NCc1cccc(F)c1)Nc1ccc(F)cc1 [Example 48]"
  parameter.measured: "pIC50"
  measured.value: "6.00 to 6.30"
- molecule: "COc1ccc(CNC(=O)Nc2cccc(SC)c2)cc1OC [Example 12]"
  parameter.measured: "pIC50"
  measured.value: "6.00 to 6.30"
- molecule: "O=C(Nc1ccccc1CCO)Nc1cccc(Cl)c1Cl [Example 137]"
  parameter.measured: "pIC50"
  measured.value: "6.00 to 6.30"
- molecule: "COc1ccc(CNC(=O)Nc2cccc(SC)c2)cc1O [Example 35]"
  parameter.measured: "pIC50"
  measured.value: "6.00 to 6.30"
- molecule: "O=C(Nc1ccc(Cl)c(-c2ccc(Cl)cc2)c1)Nc1ccccc1CCO [Example 218]"
  parameter.measured: "pIC50"
  measured.value: "> 7.00"
- molecule: "O=C(NCc1cccc(Cl)c1)Nc1ccccc1 [Example 38]"
  parameter.measured: "pIC50"
  measured.value: "6.00 to 6.30"
- molecule: "COc1cccc(NC(=O)NCc2ccc(OC)c(OC)c2)c1 [Example 14]"
  parameter.measured: "pIC50"
  measured.value: "6.00 to 6.30"
- molecule: "O=C(NCc1ccc2c(c1)OCO2)Nc1ccccc1 [Example 17]"
  parameter.measured: "pIC50"
  measured.value: "6.00 to 6.30"
- molecule: "O=C(Nc1cccc(-c2cccc(Cl)c2)c1)Nc1ccccc1CCO [Example 195]"
  parameter.measured: "pIC50"
  measured.value: "> 7.00"
- molecule: "O=C(Nc1ccccc1CCO)Nc1ccccc1Cc1ccccc1 [Example 157]"
  parameter.measured: "pIC50"
  measured.value: "6.00 to 6.30"
- molecule: "N#Cc1ccc(NC(=O)Nc2ccccc2CCO)cc1Cl [Example 191]"
  parameter.measured: "pIC50"
  measured.value: "6.30 to 7.00"
- molecule: "CC(NC(=O)Nc1ccccc1CCO)c1cccc2ccccc12 (stereo not drawn) [Example 155]"
  parameter.measured: "pIC50"
  measured.value: "6.00 to 6.30"
- molecule: "CC(=O)c1ccc(-c2cccc(NC(=O)Nc3ccccc3CCO)c2)cc1 [Example 224]"
  parameter.measured: "pIC50"
  measured.value: "> 7.00"
- molecule: "COc1cccc(NC(=O)NCc2ccc3c(c2)OCO3)c1 [Example 18]"
  parameter.measured: "pIC50"
  measured.value: "6.00 to 6.30"
- molecule: "O=C(Nc1cccc(-c2ccc(Cl)cc2)c1)Nc1ccccc1CCO [Example 194]"
  parameter.measured: "pIC50"
  measured.value: "> 7.00"

---

- compound: "O=C(Nc1cccc(-c2cccc(F)c2)c1)Nc1ccccc1CCO [Example 211]"
  melting point [°C]: 188
- compound: "COc1cc2c(cc1O)CN(C(=O)Nc1ccc(Cl)c(C(F)(F)F)c1)CC2 [Example 78]"
  melting point [°C]: 130
- compound: "COc1cc(CNC(=O)Nc2ccc(C)cc2C)ccc1O [Example 62]"
  melting point [°C]: 184
- compound: "O=C(Nc1ccc(-c2ccccc2)cc1)Nc1ccccc1CCO [Example 201]"
  melting point [°C]: 194
- compound: "O=C(Nc1ccc(F)c([N+](=O)[O-])c1)Nc1ccccc1CCO [Example 111]"
  melting point [°C]: 185
- compound: "COC(=O)c1ccccc1NC(=O)Nc1ccccc1CCO [Example 118]"
  melting point [°C]: 128
- compound: "COc1cc(CNC(=O)Nc2ccc(Cl)c([N+](=O)[O-])c2)ccc1O [Example 64]"
  melting point [°C]: 180
- compound: "O=C(Nc1ccc(-c2ccccc2)s1)Nc1ccccc1CCO [Example 243]"
  melting point [°C]: 159
- compound: "COc1cccc(NC(=O)NCc2ccc(O)c(OC)c2)c1 [Example 34]"
  melting point [°C]: 133
- compound: "O=C(Nc1cccc(-c2cccnc2)c1)Nc1ccccc1CCO [Example 212]"
  melting point [°C]: 178.9
- compound: "COc1cc(CNC(=O)Nc2cccc(-c3ccc(Cl)cc3)c2)ccc1O [Example 2-1]"
  melting point [°C]: 153.4
- compound: "CCOC(=O)c1cccc(-c2cccc(NC(=O)Nc3ccccc3CCO)c2)c1 [Example 226]"
  melting point [°C]: 133
- compound: "O=C(Nc1cccc(-c2cc(F)cc(F)c2)c1)Nc1ccccc1CCO [Example 208]"
  melting point [°C]: 169
- compound: "O=C(Nc1cccc(-c2cccc([N+](=O)[O-])c2)c1)Nc1ccccc1CCO [Example 234]"
  melting point [°C]: 188
- compound: "N#Cc1ccc(NC(=O)Nc2ccccc2CCO)cc1C(F)(F)F [Example 186]"
  melting point [°C]: 171
- compound: "Cc1ccc(-c2cccc(NC(=O)Nc3ccccc3CCO)c2)cc1Cl [Example 248]"
  melting point [°C]: 194
- compound: "COc1cc(CNC(=O)Nc2ccc(Cl)c(C(F)(F)F)c2)ccc1O [Example 55]"
  melting point [°C]: 193
- compound: "COc1cc(CNC(=O)Nc2cc([N+](=O)[O-])ccc2F)ccc1O [Example 65]"
  melting point [°C]: 208
- compound: "O=C(Nc1cccc(-c2ccc(F)c(F)c2)c1)Nc1ccccc1CCO [Example 207]"
  melting point [°C]: 181
- compound: "Cc1ccc(C)c(-c2cccc(NC(=O)Nc3ccccc3CCO)c2)c1 [Example 197]"
  melting point [°C]: 167
- compound: "O=C(Nc1ccc(Cl)c(C(F)(F)F)c1)NC1CCCc2ccc(O)cc21 (centres unmarked) [Example 54]"
  melting point [°C]: 201
- compound: "COc1ccccc1-c1cccc(NC(=O)Nc2ccccc2CCO)c1 [Example 205]"
  melting point [°C]: 130
